- Test system: hiPSC-CMs (iCell-Cardiomyocytes^2)
- conditions: 0.1 µM, 72h
Below, each entry is listed alongside its reported EAD, number of observations/total well numbers.

compound: COc1cccc2c1C(=O)c1c(O)c3c(c(O)c1C2=O)C[C@@](O)(C(=O)CO)C[C@@H]3O[C@H]1C[C@H](N)[C@H](O)[C@H](C)O1 [Doxorubicin]
obs value: 0/5
--
compound: COc1cc2c(Nc3ccc(Br)cc3F)ncnc2cc1OCC1CCN(C)CC1 [Vandetanib]
obs value: 0/5
--
compound: N=C(N)c1ccc(OCCCCCOc2ccc(C(=N)N)cc2)cc1 [Pentamidine]
obs value: 0/6

Now, please, on to the next compound.
Kindly state the measured EAD, number of observations/total well numbers obtained for Cc1cn(-c2cc(NC(=O)c3ccc(C)c(Nc4nccc(-c5cccnc5)n4)c3)cc(C(F)(F)F)c2)cn1 [Nilotinib] with hiPSC-CMs (iCell-Cardiomyocytes^2). 0/5

###

Below, each entry is listed alongside its reported Imp (impedance), % change from baseline.
- Test system: hiPSC-CMs (iCell-Cardiomyocytes^2)
- assay notes: MEA impedance (cytotoxicity readout) in hiPSC-CMs
- conditions: 10 µM; 96h
- Protocol: Cells were seeded according to the instructions of the cell provider, in fibronectin-coated 48-well MEA plates (Axion Cytoview Plates, M768-tMEA-48B) at a density suited to form a monolayer (i.e., 50 K/well) and maintained in culture in a stage incubator (37°C, 5% CO2). At least 4 h before the beginning of the baseline measurements, a full medium exchange was performed (to a final volume of 400 µL per well). […]
Report as a plain number; the unit % is understood.

compound: CC(=O)Oc1ccccc1C(=O)O
target or test system: hiPSC-CMs (iCell-Cardiomyocytes^2)
unit label: %
Imp (impedance), % change from baseline: -6
--
compound: C[C@H](CS)C(=O)N1CCC[C@H]1C(=O)O
target or test system: hiPSC-CMs (iCell-Cardiomyocytes^2)
unit label: %
Imp (impedance), % change from baseline: -4
--
compound: C#Cc1cccc(Nc2ncnc3cc(OCCOC)c(OCCOC)cc23)c1
target or test system: hiPSC-CMs (iCell-Cardiomyocytes^2)
unit label: %
Imp (impedance), % change from baseline: -10
--
compound: COc1nc(N)nc2c1ncn2[C@@H]1O[C@H](COP(=O)(N[C@@H](C)C(=O)OCC(C)(C)C)Oc2cccc3ccccc23)[C@@H](O)[C@@]1(C)O (stereo partly drawn)
target or test system: hiPSC-CMs (iCell-Cardiomyocytes^2)
unit label: %
Imp (impedance), % change from baseline: -41
--
compound: CC1(C)S[C@@H]2[C@H](NC(=O)[C@H](N)c3ccc(O)cc3)C(=O)N2[C@H]1C(=O)O
target or test system: hiPSC-CMs (iCell-Cardiomyocytes^2)
unit label: %
Imp (impedance), % change from baseline: -1

Find the recorded Imp (impedance), % change from baseline belonging to CC(C)(Sc1cc(C(C)(C)C)c(O)c(C(C)(C)C)c1)Sc1cc(C(C)(C)C)c(O)c(C(C)(C)C)c1 and report it. -8

###

- System: hiPSC-CMs (iCell-Cardiomyocytes^2)
- conditions: 3 µM, 72h
attribute measured: Cessation of beating, number of observations/total well numbers

Worked cases, Cessation of beating, number of observations/total well numbers given:
molecule: COc1cccc2c1C(=O)c1c(O)c3c(c(O)c1C2=O)C[C@@](O)(C(=O)CO)C[C@@H]3O[C@H]1C[C@H](N)[C@H](O)[C@H](C)O1
obs value: 5/5

molecule: N=C(N)c1ccc(OCCCCCOc2ccc(C(=N)N)cc2)cc1
obs value: 3/6

molecule: C#Cc1cccc(Nc2ncnc3cc(OCCOC)c(OCCOC)cc23)c1
obs value: 0/5

molecule: COc1cc2c(Nc3ccc(Br)cc3F)ncnc2cc1OCC1CCN(C)CC1
obs value: 5/5

molecule: COc1nc(N)nc2c1ncn2[C@@H]1O[C@H](COP(=O)(N[C@@H](C)C(=O)OCC(C)(C)C)Oc2cccc3ccccc23)[C@@H](O)[C@@]1(C)O (stereo partly drawn)
obs value: 0/5

Now, please, on to the next molecule.
Find the recorded Cessation of beating, number of observations/total well numbers belonging to CC(C)(Sc1cc(C(C)(C)C)c(O)c(C(C)(C)C)c1)Sc1cc(C(C)(C)C)c(O)c(C(C)(C)C)c1 and report it. 0/5

###

- System: hiPSC-CMs (iCell-Cardiomyocytes^2)
- conditions: 10 µM; 48h
attribute measured: FPDc (field-potential duration corrected by beat-rate), % change from baseline (%)
Report as a plain number; the unit % is understood.

Worked cases, FPDc (field-potential duration corrected by beat-rate), % change from baseline given:
compound: C#Cc1cccc(Nc2ncnc3cc(OCCOC)c(OCCOC)cc23)c1
obs value: 8.7
--
compound: CC1(C)S[C@@H]2[C@H](NC(=O)[C@H](N)c3ccc(O)cc3)C(=O)N2[C@H]1C(=O)O
obs value: 7.4
--
compound: CC(C)(Sc1cc(C(C)(C)C)c(O)c(C(C)(C)C)c1)Sc1cc(C(C)(C)C)c(O)c(C(C)(C)C)c1
obs value: 4.7

Find the recorded FPDc (field-potential duration corrected by beat-rate), % change from baseline belonging to C[C@H](CS)C(=O)N1CCC[C@H]1C(=O)O and report it. 10.3

Further, for COc1nc(N)nc2c1ncn2[C@@H]1O[C@H](COP(=O)(N[C@@H](C)C(=O)OCC(C)(C)C)Oc2cccc3ccccc23)[C@@H](O)[C@@]1(C)O (some centres unmarked) ? -2.4

###

Below, each entry is listed alongside its reported BR (beating rate), % change from baseline.
- Tested on: hiPSC-CMs (iCell-Cardiomyocytes^2)
- conditions: 0.3 µM, 24h
- Experimental: Cells were seeded according to the instructions of the cell provider, in fibronectin-coated 48-well MEA plates (Axion Cytoview Plates, M768-tMEA-48B) at a density suited to form a monolayer (i.e., 50 K/well) and maintained in culture in a stage incubator (37°C, 5% CO2). […] The potential presence of various arrhythmic events was evaluated and noted during the data analysis. […]
Report as a plain number; the unit % is understood.

structure string: CC(C)(Sc1cc(C(C)(C)C)c(O)c(C(C)(C)C)c1)Sc1cc(C(C)(C)C)c(O)c(C(C)(C)C)c1
target or test system: hiPSC-CMs (iCell-Cardiomyocytes^2)
obs value: 4

Find the recorded BR (beating rate), % change from baseline belonging to CCN(CC)CCNC(=O)c1c(C)[nH]c(/C=C2\C(=O)Nc3ccc(F)cc32)c1C and report it. -29

Further, for COc1cc2c(Nc3ccc(Br)cc3F)ncnc2cc1OCC1CCN(C)CC1 ? -29

Further, for COc1cccc2c1C(=O)c1c(O)c3c(c(O)c1C2=O)C[C@@](O)(C(=O)CO)C[C@@H]3O[C@H]1C[C@H](N)[C@H](O)[C@H](C)O1 ? 24

###

- Test system: hiPSC-CMs (iCell-Cardiomyocytes^2)
- conditions: 1 µM, 48h
- Protocol: Cells were seeded according to the instructions of the cell provider, in fibronectin-coated 48-well MEA plates (Axion Cytoview Plates, M768-tMEA-48B) at a density suited to form a monolayer (i.e., 50 K/well) and maintained in culture in a stage incubator (37°C, 5% CO2). […] The potential presence of various arrhythmic events was evaluated and noted during the data analysis. […]
Below, each entry is listed alongside its reported FPD (field-potential duration), % change from baseline.
Report as a plain number; the unit % is understood.

molecule: CC(C)(Sc1cc(C(C)(C)C)c(O)c(C(C)(C)C)c1)Sc1cc(C(C)(C)C)c(O)c(C(C)(C)C)c1
obs value: 12.6
--
molecule: Cc1cn(-c2cc(NC(=O)c3ccc(C)c(Nc4nccc(-c5cccnc5)n4)c3)cc(C(F)(F)F)c2)cn1
obs value: 209.3
--
molecule: O=C(O)COCCN1CCN(C(c2ccccc2)c2ccc(Cl)cc2)CC1 (stereo not shown)
obs value: 20.8

Find the recorded FPD (field-potential duration), % change from baseline belonging to C#Cc1cccc(Nc2ncnc3cc(OCCOC)c(OCCOC)cc23)c1 and report it. 16.6

###

- System: hiPSC-CMs (iCell-Cardiomyocytes^2)
- conditions: 0.1 µM, 96h
- Method: Cells were seeded according to the instructions of the cell provider, in fibronectin-coated 48-well MEA plates (Axion Cytoview Plates, M768-tMEA-48B) at a density suited to form a monolayer (i.e., 50 K/well) and maintained in culture in a stage incubator (37°C, 5% CO2). […] The potential presence of various arrhythmic events was evaluated and noted during the data analysis. […]
attribute measured: EAD, number of observations/total well numbers

Worked cases, EAD, number of observations/total well numbers given:
structure string: N=C(N)c1ccc(OCCCCCOc2ccc(C(=N)N)cc2)cc1
obs value: 0/6
//
structure string: COc1cccc2c1C(=O)c1c(O)c3c(c(O)c1C2=O)C[C@@](O)(C(=O)CO)C[C@@H]3O[C@H]1C[C@H](N)[C@H](O)[C@H](C)O1
obs value: 0/5
//
structure string: COc1cc2c(Nc3ccc(Br)cc3F)ncnc2cc1OCC1CCN(C)CC1
obs value: 0/5

Find the recorded EAD, number of observations/total well numbers belonging to Cc1cn(-c2cc(NC(=O)c3ccc(C)c(Nc4nccc(-c5cccnc5)n4)c3)cc(C(F)(F)F)c2)cn1 and report it. 0/5
